# Tested on: L 1210 leukemia cells
# method-summary: In vitro cytostatic activity, colony formation (Hamburger and Salmon), 1-hour incubation
# Type: cell-based
# test-context: Mus musculus, L1210; L 1210, 1 hour incubation at 37° C., then washed and plated; carried out 4 times, deviation less than 15%; read-out: IC50, Strain test, 1 hour
readout: IC50 (µg/mL)
Answers are plain numbers, in µg/mL.

These solved cases illustrate the format of a correct answer.
molecule | IC50, µg/mL
CC(=O)OC1CC(OC2CCC(OC3CC(c4ccc5c(c4O)C(=O)C4=C(C5=O)C5(OC6CCC(O)C(C)O6)C(=O)CC(C)(O)CC5(O)C=C4)OC(C)C3O)OC2C)OC(C)C1O (centres unmarked) | 2.2
CC(=O)OC1CC(OC2CCC(OC3CC(c4ccc5c(c4O)C(=O)C4=C(C5=O)C5(OC6CCC(O)C(C)O6)C(=O)CC(C)(O)CC5(O)C=C4)OC(C)C3O)OC2C)OC(C)C1OC(C)=O (centres unmarked) | 0.35
CC(=O)Oc1c(C2CC(OC3CCC(OC4CC(OC(C)=O)C(OC(C)=O)C(C)O4)C(C)O3)C(OC(C)=O)C(C)O2)ccc2c1C(=O)C1=C(C2=O)C2(OC3CCC(OC(C)=O)C(C)O3)C(=O)CC(C)(O)CC2(O)C=C1 (centres unmarked) [Penta-O-acetylu. A, 5',3B,4B,4C,8-penta-O-acetylurdamycin A, reference compound] | 0.12
CCCCCCCC(=O)OC1C(O)CC(OC2CCC(OC3CC(c4ccc5c(c4O)C(=O)C4=C(C5=O)C5(OC6CCC(O)C(C)O6)C(=O)CC(C)(O)CC5(O)C=C4)OC(C)C3O)OC2C)OC1C (centres unmarked) | 0.09

Input line: Reported IC50, molecule CCCCCCCC(=O)OC1CC(OC2CCC(OC3CC(c4ccc5c(c4O)C(=O)C4=C(C5=O)C5(OC6CCC(O)C(C)O6)C(=O)CC(C)(O)CC5(O)C=C4)OC(C)C3O)OC2C)OC(C)C1O (centres unmarked) : ____
Output line: 0.26
